# Test system: HT-29
# protocol_details: NCI tumour cell line growth inhibition, 48 h
Activity calls are given as the source filed them. No stated cut-off is given here; in the data, active = GI50 up to about 1.1 µM and inactive = higher.
metric_name: GI50

Worked cases, answers included:
[
  {
    "compound": "Cc1c(F)c(N)c2c(=O)cc(-c3ccc(NC(=O)[C@@H](N)CCCCN)c(F)c3)oc2c1F",
    "metric_name": "GI50",
    "result": "13.1 µM (inactive)"
  },
  {
    "compound": "COC(=O)C1=C(C)NC(CF)=C(C(=O)OC)C1c1cccc2c(=O)c3ccccc3oc12 (stereo not given)",
    "metric_name": "GI50",
    "result": "3.58 µM (inactive)"
  },
  {
    "compound": "Cc1ccc(-n2cnc(C(=N)C#N)c2N)cc1",
    "metric_name": "GI50",
    "result": "> 100 µM (inactive)"
  },
  {
    "compound": "O=NN1C(c2ccccc2)CC(=NO)CC1c1ccccc1 (stereo not given)",
    "metric_name": "GI50",
    "result": "20.5 µM (inactive)"
  },
  {
    "compound": "COc1cc(C2SCC(=O)N2c2ccc(NC(C)=O)cc2)cc(OC)c1OC (stereo not given)",
    "metric_name": "GI50",
    "result": "90.4 µM (inactive)"
  },
  {
    "compound": "N#Cc1cc2cc3c4c(c2oc1=O)CCCN4CCC3",
    "metric_name": "GI50",
    "result": "> 100 µM (inactive)"
  },
  {
    "compound": "CCN(CC)Cc1cc(Nc2ccnc3ccc4nn(C)nc4c23)ccc1O",
    "metric_name": "GI50",
    "result": "4.7 µM (inactive)"
  },
  {
    "compound": "CCCCCCCCCCCCCCCCCCNc1ccn(C2OC(COP(=O)(O)OCC3OC(n4ccc(NC(=O)CCCCCCCCCCCCCCCCC)nc4=O)C(OC(C)=O)C3OC(C)=O)C(OC(C)=O)C2OC(C)=O)c(=O)n1 (stereo not given)",
    "metric_name": "GI50",
    "result": "> 100 µM (inactive)"
  }
]

Inquiry: Given the entry C=CCC1C(=O)CC2(C)C(CC=C)C(=O)CC12C (stereo not given) , report its measured GI50.
Reply text: > 100 µM (inactive)

Inquiry: Query (compound): `COc1cc2c(cc1OCCN1CCN(CCOc3cc4c(cc3OC)C(=O)N3CCC[C@H]3C=N4)CC1)N=C[C@@H]1CCCN1C2=O` ; field requested: GI50
Reply text: 36 µM (inactive)

Inquiry: Looking for the measured GI50 of `COc1ccc2c(c1)OCC1=C2Oc2ccccc2C1` , can you help?
Reply text: 26.7 µM (inactive)

Inquiry: So what does the record say about GI50 for `S=c1[nH]c(=S)c2cc(Sc3ccc4[nH]c(=S)[nH]c(=S)c4c3)ccc2[nH]1` ?
Reply text: 41 µM (inactive)

====

As shown below, each of these molecules has a reported GI50 value.
# Test system: KM12
# protocol_details: NCI tumour cell line growth inhibition, 48 h
Active and inactive are the calls of the source. No stated cut-off is given here; in the data, active = GI50 up to about 1.1 µM and inactive = higher.

[
  {
    "molecule": "CCOC(=O)C1=C(C)N(NC(=O)OC)C2(N)N(NC(=O)OC)C(C)=C(C(=O)OCC)C12C#N (centres undefined)",
    "metric_name": "GI50",
    "result": "> 100 µM (inactive)"
  },
  {
    "molecule": "Cc1[nH]c2ncn3nc(C(Cl)(Cl)Cl)nc3c2c1Cc1ccccc1",
    "metric_name": "GI50",
    "result": "> 100 µM (inactive)"
  },
  {
    "molecule": "O=NN1C(c2ccccc2)CC(=NO)CC1c1ccccc1 (centres undefined)",
    "metric_name": "GI50",
    "result": "> 100 µM (inactive)"
  }
]

Inquiry: Returns the measured GI50 for the input molecule. Input: `O=C1C[C@@H]2[C@@H](CCC23CCCC3)N1`
Reply text: > 100 µM (inactive)

Inquiry: Requested read-out: GI50. Entry: CC(C)(C)[Si](C)(C)OCCCCC1CC2(S(=O)(=O)C3=CC=C=C=C3)ON1CC2S(=O)(=O)c1ccccc1 (centres undefined)
Reply text: > 100 µM (inactive)

Inquiry: GI50 lookup needed for `COc1ccc(C(=O)N(C(=S)OCCOc2ccccc2)c2ccccc2)cc1` , thanks.
Reply text: 31.3 µM (inactive)

Inquiry: Which GI50 is reported for this molecule? COc1ccc(C(=O)O[C@H]2[C@@H]3C=CO[C@@H](OC4OC(CO)C(O)C(O)C4O)[C@@H]3[C@@]3(CO)O[C@@H]23)cc1O (some centres undefined)
Reply text: > 100 µM (inactive)

Inquiry: Item C[C@]12CCC3[C@@H](CC[C@@H]4c5nonc5CC[C@]34C)C1CCC2=O (some centres undefined) has what recorded GI50?
Reply text: 20.7 µM (inactive)

Inquiry: Consider the molecule shown here: `O=C(/C=C/c1ccccc1)c1cc(Br)ccc1O` What is its recorded GI50?
Reply text: 12 µM (inactive)

====

The following compounds each carry a recorded GI50 for HCT-15.
Express your answer in µM, writing the number without its unit.

Inquiry: Give the reported GI50 for `CCN(CC)c1c(C(=O)/C=C/c2ccc(F)cc2)c(-c2ccccc2)nn(C)c1=O` (system: HCT-15).
Reply text: 10.4

====

Recorded GI50 values for a group of molecules are listed next.
# Test system: SN12C
# protocol_details: NCI tumour cell line growth inhibition, 48 h
Active and inactive are the calls of the source. Rule as the data show it: active = GI50 up to about 1.1 µM and inactive = higher.

[
  {
    "molecule": "C=C(C(=O)OC)N1C(=O)CC(C)C1=O (stereo not given)",
    "test_system": "SN12C",
    "GI50": "16.1 µM (inactive)"
  },
  {
    "molecule": "O=C(O)/C=N/NC(=S)NC1CCCCC1",
    "test_system": "SN12C",
    "GI50": "> 100 µM (inactive)"
  }
]

Inquiry: Value lookup for GI50; key = `Cc1cn2c(/C=N/NC(=N)N)c(-c3ccc([N+](=O)[O-])cc3)nc2s1`
Reply text: 1.46 µM (inactive)

Inquiry: Entry `CC(C)COC(=O)OC(=O)c1ccc(N(C)Cc2cnc3nc(N)nc(N)c3n2)cc1` has what GI50?
Reply text: > 100 µM (inactive)

Inquiry: GI50 for `CCOC(=O)c1c(SCc2cc(=O)[nH]c(=O)[nH]2)n(-c2ccccc2)c(=S)n(-c2ccccc2)c1=O` ?
Reply text: > 100 µM (inactive)

====

Documented GI50 across a set of compounds
# Tested on: SF-295
# protocol_details: NCI tumour cell line growth inhibition, 48 h
Active and inactive are the calls of the source. No stated cut-off is given here; in the data, active = GI50 up to about 1.1 µM and inactive = higher.

Here is how some compounds turned out for GI50.
[
  {
    "smiles_representation": "CC(C)(C)/C(O)=C\\c1nc2cc(C(F)(F)F)ccc2[nH]c1=O",
    "GI50": "> 100 µM (inactive)"
  },
  {
    "smiles_representation": "Cc1nc2c(O)cc3c4c(=O)n(C)c(=O)n(C)c4n(Cc4ccccc4)c3c2nc1C",
    "GI50": "50.5 µM (inactive)"
  },
  {
    "smiles_representation": "O=C(OCCN=c1c2ccccc2ccc2ccccc12)c1ccccc1",
    "GI50": "> 100 µM (inactive)"
  },
  {
    "smiles_representation": "CNC(=O)N(CCC#N)CCCN(C(=O)NC)c1ccccc1",
    "GI50": "> 100 µM (inactive)"
  },
  {
    "smiles_representation": "Cc1ccc(-c2nc(C)c(C(=O)Nc3ccc(Cl)cc3)s2)cc1",
    "GI50": "15.4 µM (inactive)"
  }
]

Let us move to another entry and its GI50.
Inquiry: Quick one: GI50 for `NCCCCNCCCNC(=O)c1csc(-c2nc(CCN)sc2Cl)n1` ?
Reply text: > 100 µM (inactive)

====

Reported GI50 values follow for various compounds
# Tested on: RPMI-8226
# protocol_details: NCI tumour cell line growth inhibition, 48 h
The source made the active and inactive calls. No stated cut-off is given here; in the data, active = GI50 up to about 1.1 µM and inactive = higher.

Known GI50 results, listed for orientation:
[
  {
    "compound": "COc1ccc2oc(=N)c(C(N)=O)cc2c1",
    "GI50": "> 100 µM (inactive)"
  },
  {
    "compound": "CCc1ccccc1NC(=O)/C=C/c1ccccc1",
    "GI50": "> 100 µM (inactive)"
  }
]

Inquiry: Find the measured GI50: item `CCc1nn(S(=O)(=O)c2ccc(C)cc2)c2c1CS(=O)(=O)CC2` , target or system RPMI-8226.
Reply text: > 100 µM (inactive)

Inquiry: Find the measured GI50: item CC1(c2ccccc2)CC(c2cccc([N+](=O)[O-])c2)=NO1 (configuration not stated) , target or system RPMI-8226.
Reply text: 51.3 µM (inactive)

====

# Tested on: SNB-19
# protocol_details: NCI tumour cell line growth inhibition, 48 h
Calls of active or inactive are those of the source. Rule as the data show it: active = GI50 up to about 1.1 µM and inactive = higher.
metric_name: GI50

[
  {
    "compound": "C[Si](C)(OCCS(=O)(=O)O)OC(=C1S(=O)(=O)OCCOS1(=O)=O)c1cccc2ccccc12",
    "metric_name": "GI50",
    "result": "> 100 µM (inactive)"
  },
  {
    "compound": "CCOC(=O)CN1CC(C2=C(O)CN(CC(=O)OCC)C2=O)=CC1=O",
    "metric_name": "GI50",
    "result": "> 100 µM (inactive)"
  },
  {
    "compound": "Clc1ccc(Nc2nc3ccccc3nc2-c2cccs2)cc1Cl",
    "metric_name": "GI50",
    "result": "36 µM (inactive)"
  },
  {
    "compound": "CN1CN(c2ccccc2)C2(CCN(CCC3COc4ccccc4O3)CC2)C1=O (stereo unspecified)",
    "metric_name": "GI50",
    "result": "19.9 µM (inactive)"
  },
  {
    "compound": "NS(=O)(=O)c1nnc(NC(=O)N(c2ccccc2)c2ccccc2)s1",
    "metric_name": "GI50",
    "result": "24.4 µM (inactive)"
  }
]

Turning now to a further record.
Inquiry: Name the recorded GI50 for CC1(C)OP(=O)(c2ccccc2)C=C1Br (stereo unspecified) .
Reply text: > 100 µM (inactive)
